system: T1, wheat germ agglutinin (WGA) (Triticum vulgare, UniProt P10968 P10968:27-197)
T1 sequence: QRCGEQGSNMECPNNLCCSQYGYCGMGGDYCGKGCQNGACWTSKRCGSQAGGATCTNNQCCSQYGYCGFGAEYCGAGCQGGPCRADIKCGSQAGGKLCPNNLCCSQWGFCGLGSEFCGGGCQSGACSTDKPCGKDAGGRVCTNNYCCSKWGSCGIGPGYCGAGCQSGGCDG
assay-procedure: filter; HBSS, room temp
experimental-context: tags: free lectin, E Y Laboratories; label: 32P; hairpin

binder | Kd, nM
11.5 (ssRNA, 2'-NH2 all C and U) RNA: GGGAAAAGCGAAUCAUACACAAGAACAAGGAUCGAUGGCGAGCCGGGGAGGGCUCGGCGGGAACGAAAUCUGCUCCGCCAGAGACCAACCGAGAA | 44
6.9 (ssRNA, 2'-NH2 all C and U) RNA: GGGAAAAGCGAAUCAUACACAAGACUCGGCGGGAACGAAGUGUGUGAGUAACGAUCACUUGGUACUAAAAGCCCGCUCCGCCAGAGACCAACCGAGAA | 396
11.6 (ssRNA, 2'-NH2 all C and U) RNA: GGGAAAAGCGAAUCAUACACAAGACUGGGGAGCAGGAUAUGAGAUGUGCGGGGCAAUGGAGUCGUGACGAACCGCUCCGCCAGAGACCAACCGAGAA | 702
11.34 (ssRNA, 2'-NH2 all C and U) RNA: GGGAAAAGCGAAUCAUACACAAGACUCGGCGGGAACGUGAAGUGGGUAGGUAGCUGAAGACGGUCUGGGCGCCAGCUCCGCCAGAGACCAACCGAGAA | 92
